Hi there, I'd appreciate the recorded pEC50 for every entry that follows.
# ASSAY SYSTEM: Neuronal acetylcholine receptor subunit alpha-7 (Homo sapiens, UniProt P36544)
# Sequence (P36544 whole entry): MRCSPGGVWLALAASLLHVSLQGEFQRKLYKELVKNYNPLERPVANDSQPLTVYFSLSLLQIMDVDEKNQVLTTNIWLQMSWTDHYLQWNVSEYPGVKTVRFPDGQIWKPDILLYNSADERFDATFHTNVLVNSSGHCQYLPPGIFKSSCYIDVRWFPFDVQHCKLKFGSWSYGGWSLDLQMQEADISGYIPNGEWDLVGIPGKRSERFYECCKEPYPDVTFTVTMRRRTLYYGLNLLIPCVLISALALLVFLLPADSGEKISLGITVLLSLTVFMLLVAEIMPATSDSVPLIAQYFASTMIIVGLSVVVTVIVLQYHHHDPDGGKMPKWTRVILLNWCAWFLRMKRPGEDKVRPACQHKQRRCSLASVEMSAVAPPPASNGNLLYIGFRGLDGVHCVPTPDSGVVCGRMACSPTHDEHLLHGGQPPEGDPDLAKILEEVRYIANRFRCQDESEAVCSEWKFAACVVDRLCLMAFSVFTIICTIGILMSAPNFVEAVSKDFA
# ASSAY EXPLANATION: Agonist activity at human recombinant alpha7 nAChR expressed in xenopus oocytes assessed as induction of Ca2+ current
One number for each entry, as −log10 of the molar value.

INSERT INTO assay_data (structure, reported_value) VALUES
  ('CN1C[C@@H]2CN(c3ccc(-c4ccccc4)nn3)C[C@@H]2[C@H]1COc1cccnc1', 4.89);

// each compound listed below needs its pEC50
1. c1ccc(-c2ccc(N3C[C@H]4CN(Cc5cccnc5)C[C@H]4C3)nn2)cc1
2. Clc1ccc(CN2C[C@@H]3CN(c4ccc(-c5ccccc5)nn4)C[C@@H]3C2)cn1

Result ::
1. 5.03
2. 4.93

====

# ASSAY SYSTEM: Neuronal acetylcholine receptor; alpha4/beta2 (Rattus norvegicus) (UniProt P09483+P12390)
# ASSAY EXPLANATION: Displacement of [3H]cytisine from rat brain alpha4beta2 nAChR up to 10 uM
Calls of active or inactive are those of the source. No cut-off for these calls is given here.
QUANTITY KIND: Activity

INSERT INTO results (compound, reported_value) VALUES
  ('c1ccc(-c2ccc(N3C[C@H]4CN(Cc5ccncc5)C[C@H]4C3)nn2)cc1', 'inactive'),
  ('c1ccc(CN2C[C@@H]3CN(c4ccc(-c5ccccc5)nn4)C[C@@H]3C2)cc1', 'inactive'),
  ('CN(Cc1cccnc1)C1CCN(c2ccc(-c3ccccc3)nn2)C1 (racemic)', 'inactive'),
  ('CN(Cc1ccccn1)C1CCN(c2ccc(-c3ccccc3)nn2)C1 (racemic)', 'inactive');

// each compound listed below needs its Activity
1. CN(C)C1CCN(c2ccc(-c3ccccc3)nn2)C1 (racemic)
2. c1ccc(-c2ccc(N3C[C@H]4CN(Cc5ccccn5)C[C@H]4C3)nn2)cc1
3. CN(Cc1ccncc1)C1CCN(c2ccc(-c3ccccc3)nn2)C1 (racemic)
4. CCN1C[C@@H]2CN(c3ccc(-c4ccccc4)nn3)C[C@@H]2C1
5. CN(Cc1ccccc1)C1CCN(c2ccc(-c3ccccc3)nn2)C1 (racemic)
6. c1ccc(-c2ccc(N3C[C@H]4CN(Cc5cccnc5)C[C@H]4C3)nn2)cc1

Result ::
1: inactive; 2: inactive; 3: inactive; 4: inactive; 5: inactive; 6: inactive

====

# ASSAY SYSTEM: Neuronal acetylcholine receptor; alpha4/beta2 (Homo sapiens, UniProt P17787+P43681)
# Sequence (P17787 whole entry): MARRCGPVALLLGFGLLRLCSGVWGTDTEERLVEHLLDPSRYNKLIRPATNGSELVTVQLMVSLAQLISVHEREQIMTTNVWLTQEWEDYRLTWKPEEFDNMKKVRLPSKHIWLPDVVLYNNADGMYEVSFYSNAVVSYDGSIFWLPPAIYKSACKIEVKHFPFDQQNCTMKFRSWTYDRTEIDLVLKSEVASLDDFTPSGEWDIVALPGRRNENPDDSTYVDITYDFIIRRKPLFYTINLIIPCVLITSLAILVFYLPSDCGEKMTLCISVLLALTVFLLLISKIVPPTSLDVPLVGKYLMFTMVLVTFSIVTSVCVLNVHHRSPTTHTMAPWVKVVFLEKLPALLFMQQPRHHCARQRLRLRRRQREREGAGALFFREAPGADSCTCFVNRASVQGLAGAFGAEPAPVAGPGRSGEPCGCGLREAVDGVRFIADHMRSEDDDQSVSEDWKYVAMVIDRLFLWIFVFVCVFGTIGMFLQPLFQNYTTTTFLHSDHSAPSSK
# Sequence (P43681 whole entry): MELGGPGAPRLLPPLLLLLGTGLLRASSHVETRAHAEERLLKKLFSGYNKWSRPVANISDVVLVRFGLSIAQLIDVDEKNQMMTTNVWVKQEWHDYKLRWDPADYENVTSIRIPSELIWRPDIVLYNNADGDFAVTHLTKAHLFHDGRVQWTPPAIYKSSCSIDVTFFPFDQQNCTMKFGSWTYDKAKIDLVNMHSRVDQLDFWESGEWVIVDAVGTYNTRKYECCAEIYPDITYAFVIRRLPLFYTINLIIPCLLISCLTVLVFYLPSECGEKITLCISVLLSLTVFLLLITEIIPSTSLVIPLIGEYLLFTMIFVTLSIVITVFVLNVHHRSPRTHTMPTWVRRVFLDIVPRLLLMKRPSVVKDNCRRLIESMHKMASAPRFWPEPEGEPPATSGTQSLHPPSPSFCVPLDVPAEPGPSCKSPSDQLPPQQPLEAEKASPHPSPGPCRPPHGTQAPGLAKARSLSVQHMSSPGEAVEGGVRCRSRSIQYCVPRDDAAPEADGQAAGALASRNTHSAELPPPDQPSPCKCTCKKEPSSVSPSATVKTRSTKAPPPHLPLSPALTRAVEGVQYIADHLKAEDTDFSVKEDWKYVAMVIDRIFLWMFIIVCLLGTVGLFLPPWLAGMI
# ASSAY EXPLANATION: Inhibition of alpha4beta2 nAChR
QUANTITY KIND: Ki

Query :: Specify Ki for "CN1C[C@@H]2CN(c3ccc(-c4ccccc4)nn3)C[C@@H]2C1" , system Neuronal acetylcholine receptor; alpha4/beta2 (Homo sapiens, UniProt P17787+P43681).
Result :: > 100 µM

====

# ASSAY SYSTEM: Neuronal acetylcholine receptor subunit alpha-7 (Rattus norvegicus, UniProt Q05941)
# Sequence (Q05941 whole entry): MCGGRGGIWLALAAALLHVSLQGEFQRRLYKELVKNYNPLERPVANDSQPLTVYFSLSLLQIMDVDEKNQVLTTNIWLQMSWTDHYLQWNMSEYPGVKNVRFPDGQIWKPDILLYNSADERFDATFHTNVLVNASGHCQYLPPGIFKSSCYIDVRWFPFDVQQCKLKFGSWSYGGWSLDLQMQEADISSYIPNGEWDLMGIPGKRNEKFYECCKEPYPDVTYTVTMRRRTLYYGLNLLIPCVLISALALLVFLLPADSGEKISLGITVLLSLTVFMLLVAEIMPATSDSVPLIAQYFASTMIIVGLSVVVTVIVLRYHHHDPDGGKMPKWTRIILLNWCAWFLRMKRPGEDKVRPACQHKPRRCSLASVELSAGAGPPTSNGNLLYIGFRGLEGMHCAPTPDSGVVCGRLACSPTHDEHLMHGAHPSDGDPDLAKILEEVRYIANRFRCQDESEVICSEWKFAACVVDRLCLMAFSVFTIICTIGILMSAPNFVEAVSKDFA
# ASSAY EXPLANATION: Displacement of [3H]585539 from alpha7 nAChR in rat brain
Hi there, I'd appreciate the recorded pKi for every entry that follows.
Answers are plain numbers, as −log10 of the molar value.

INSERT INTO assay_data (compound, reported_value) VALUES
  ('CN1C[C@@H]2CN(c3ccc(-c4ccccc4)nn3)C[C@@H]2[C@H]1COc1cccnc1', 7.38),
  ('CN(C)C1CCN(c2ccc(-c3ccccc3)nn2)C1 (racemic)', 6.32),
  ('CN1C[C@@H]2CN(c3ccc(-c4ccccc4)nn3)C[C@@H]2[C@@H]1COc1cccnc1', 6.49);

Now examine the next entry.
Query :: Annotate the compound CCN(C)C1CCN(c2ccc(-c3ccccc3)nn2)C1 (racemic) with its measured pKi.
Result :: 6.13

====

# ASSAY SYSTEM: Neuronal acetylcholine receptor; alpha4/beta2 (Rattus norvegicus) (UniProt P09483+P12390)
# ASSAY EXPLANATION: Displacement of [3H]cytisine from rat brain alpha4beta2 nAChR up to 10 uM
Active and inactive are the calls of the source. No cut-off for these calls is given here.
QUANTITY KIND: Activity

INSERT INTO results (compound, quantity_kind, reported_value) VALUES
  ('CN(Cc1ccc(Cl)nc1)C1CCN(c2ccc(-c3ccccc3)nn2)C1 (racemic)', 'Activity', 'inactive'),
  ('Clc1ccc(CN2C[C@@H]3CN(c4ccc(-c5ccccc5)nn4)C[C@@H]3C2)cn1', 'Activity', 'inactive'),
  ('CCN(C)C1CCN(c2ccc(-c3ccccc3)nn2)C1 (racemic)', 'Activity', 'inactive');
